System: IL6 production in RAW 264.7 macrophage cell line
TEST_SUMMARY: Mouse IL6 quantification assay (LPS-stimulated macrophages, ELISA)
Type: cell-based
PARTICULARS: RAW264.7, RAW 264.7 murine leukemia virus transformed macrophage cell lines, LPS stimulation, read-out: IL-6 % Inhibition at 30 μM
Here the recorded inhibition at 30 µM is given for each entry.

# COMPOUND, TARGET_DESC, inhibition at 30 µM
records = [
    ("COc1cnc(CNC(=O)c2csc3nc(-c4ccccn4)nc(N)c23)[nH]c1=O [drawing 2344]", "IL6 production in RAW 264.7 macrophage cell line", "1 to 25%"),
    ("Cc1sc2c(O)nc(-c3nccn3C)nc2c1-c1ccccc1 [drawing 2421]", "IL6 production in RAW 264.7 macrophage cell line", "76 to 100%"),
    ("O=C(c1csc2c(O)nc(-c3ccccn3)nc12)N1CCN(c2ccc(F)cc2)CC1 [drawing 2180]", "IL6 production in RAW 264.7 macrophage cell line", "26 to 50%"),
    ("Nc1nc(O)c2sc(-c3cccc(C(=O)NCc4ncc[nH]4)c3)cc2n1 [drawing 2372]", "IL6 production in RAW 264.7 macrophage cell line", "0%"),
    ("Cc1c(C(=O)Nc2nnc(-c3ccccn3)[nH]2)oc2c1C(=O)CCC2 [drawing 1946]", "IL6 production in RAW 264.7 macrophage cell line", "1 to 25%"),
    ("COC(=O)c1c(C)sc2c(N)nc(-c3ccccn3)nc12 [drawing 2335]", "IL6 production in RAW 264.7 macrophage cell line", "76 to 100%"),
    ("O=c1nc(-c2ccccn2)[nH]c2scc(-c3ccccc3Cl)c12 [drawing 2025]", "IL6 production in RAW 264.7 macrophage cell line", "0%"),
    ("Nc1nc(-c2ccccn2)nc(C(=O)NCCc2ccncc2)c1Oc1ccccc1 [drawing 2378]", "IL6 production in RAW 264.7 macrophage cell line", "0%"),
    ("O=C(Nc1nnc(-c2ccccn2)[nH]1)C1CCCN(c2cnccn2)C1 (stereo not drawn) [drawing 1979]", "IL6 production in RAW 264.7 macrophage cell line", "1 to 25%"),
]

----------
In this section we review reported inhibition at 20 µM values for a set of molecules.
TARGET_DESC: Rac-1 (Homo sapiens (Human), UniProt P63000)
TEST_SUMMARY: Rac inhibition assay (labeled GTP)
Assay type: binding
PARTICULARS: read-out: Rac-1 % Inh.

# MOLECULE, inhibition at 20 µM
data = [
    ("Oc1nc(-c2ccccn2)nc2c(-c3ccc(OC4CCCC4)cc3)csc12 [drawing 3735]", "25 to 50%"),
    ("Cc1cnc(-c2ccccn2)nc1NC(=O)C1CCCc2cc(C#N)ccc21 (centres unmarked) [drawing 3699]", "76 to 100%"),
    ("O=C(NCCc1ccncn1)c1csc2nc(-c3ccccn3)nc(N3CCOCC3)c12 [drawing 3819]", "51 to 75%"),
    ("O=C(c1csc2c(O)nc(-c3ccccn3)nc12)N1CCNC(Cc2ccc(F)cc2)C1 (centres unmarked) [drawing 3703]", "76 to 100%"),
    ("O=C(c1csc2c(O)nc(-c3ccccn3)nc12)N1CC2CC1CN2c1ccccc1 (centres unmarked) [drawing 3710]", "76 to 100%"),
    ("CC(C)c1nn(C)cc1-c1csc2c(O)nc(-c3ccccn3)nc12 [drawing 3820]", "51 to 75%"),
    ("COc1ccc(N2CCN(C(=O)c3csc4c(O)nc(-c5ccccn5)nc34)CC2)cc1O [drawing 3691]", "76 to 100%"),
    ("Oc1nc(-c2ccccn2)nc2c(-c3cncc(F)c3)csc12 [drawing 3782]", "1 to 25%"),
]

----------
inhibition at 20 µM reference
TARGET_DESC: KRas G12D/Q61H double mutant (Homo sapiens (Human), UniProt P01116, G12D/Q61H)
Sequence (P01116-2 other isoform, or with tags, fused parts or gaps G12D/Q61H): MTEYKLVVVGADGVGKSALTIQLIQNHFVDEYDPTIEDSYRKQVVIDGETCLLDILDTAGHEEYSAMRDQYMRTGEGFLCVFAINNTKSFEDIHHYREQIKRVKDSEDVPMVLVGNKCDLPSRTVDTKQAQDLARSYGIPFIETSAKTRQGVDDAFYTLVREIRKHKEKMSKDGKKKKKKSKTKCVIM
TEST_SUMMARY: Ras GTP binding domain inhibition assay (labeled GTP)
PARTICULARS: 20 μM compound; read-out: % Inhibition at 20 μM KRas G12D Q61H

# COMPOUND, inhibition at 20 µM
data = [
    ("CCOC(=O)c1sc(N(C2CC2)S(=O)(=O)c2cc(F)ccc2C)nc1C", "25 to 50%"),
    ("O=C(Nc1nc(-c2ccccn2)cs1)c1ccc(=O)[nH]c1", "25 to 50%"),
    ("O=C(OCCc1ccccc1)N1CCCc2c(O)nc(-c3ccccn3)nc21 [drawing 2653]", "76 to 100%"),
    ("O=C(c1ccccc1)N1CCCc2c(O)nc(-c3ccccn3)nc21", "25 to 50%"),
    ("CS(=O)(=O)c1cccc(C(=O)N2CCCc3c(O)nc(-c4ccccn4)nc32)c1 [drawing 2647]", "51 to 75%"),
    ("Cc1cc(NCCNC(=O)Cc2ccccc2)nc(-c2ccccn2)n1", "25 to 50%"),
    ("OC1CCC(Nc2nc(-c3ccccn3)nc3scc(-c4ccccc4)c23)CC1 (stereo not shown)", "25 to 50%"),
    ("Oc1nc(-c2ccccn2)nc2c(-c3ccc(C4CCC4)cc3)csc12 [drawing 2865]", "51 to 75%"),
    ("O=C(NCCc1cccnc1)c1cc2nc(-c3ccccn3)nc(O)c2s1 [drawing 2843]", "25 to 50%"),
    ("O=C(c1cccc(S(=O)(=O)N2CCOCC2)c1)N1N=C(c2ccccc2)CC1(O)C(F)(F)F (stereo not shown)", "25 to 50%"),
    ("Cc1cccc(Oc2ccc(S(=O)(=O)N3CCCCC3)cc2NCc2cc(C)on2)c1", "1 to 25%"),
    ("COc1cccc(OCCn2c(CN3CCOCC3)nc3ccccc32)c1", "1 to 25%"),
    ("COc1ccc(CCC(=O)Nc2nnc(-c3ccccn3)[nH]2)cc1OC", "25 to 50%"),
    ("Cc1sc2c(O)nc(-c3ccccn3)nc2c1-c1ccccc1 [drawing 2905]", "51 to 75%"),
    ("COC(=O)CCN(Cc1cc(Br)cc(C(F)(F)F)c1)C1CCOCC1", "1 to 25%"),
    ("Cc1cnc(-c2ccccn2)nc1NC(=O)COCc1ccncc1", "51 to 75%"),
    ("CCCn1c(CNc2ccccc2OCCOC)nc2cc(S(=O)(=O)N(C)C)ccc21", "1 to 25%"),
    ("O=C1NCCCC1Nc1cc(C(F)(F)F)nc(-c2ccccn2)n1 (stereo not shown)", "1 to 25%"),
    ("CN(c1ccccc1)c1ccccc1NCc1nnnn1-c1ccccc1", "1 to 25%"),
    ("Oc1nc(-c2ccccn2)nc2c(-c3ccccn3)csc12 [drawing 2896]", "1 to 25%"),
    ("O=C(Nc1ccc(N2CCOCC2)cc1)c1ccccc1OCCOc1ccccc1", "1 to 25%"),
    ("N#Cc1ccc(CC(=O)Nc2nc(-c3ccccn3)nc3sccc23)cc1 [drawing 2817]", "1 to 25%"),
    ("O=C(c1csc2c(O)nc(-c3ccccn3)nc12)N1CCNC(c2ccc(O)cc2)C1 (stereo not shown) [drawing 2808]", "76 to 100%"),
    ("O=C(c1csc2c(O)nc(-c3ccccn3)nc12)N1CCN(c2ccccc2O)CC1", "25 to 50%"),
    ("CCN(CC(=O)Nc1ccccc1OC)Cc1coc(-c2cccs2)n1", "1 to 25%"),
    ("CC(=O)Nc1ccc(C(F)(F)F)cc1NCc1nc(C)no1", "1 to 25%"),
    ("Cc1noc(C)c1CN(C(=O)c1ccc(COc2ccc(F)cc2)o1)c1ccccc1", "25 to 50%"),
    ("CN1CCN(c2nc(-c3ccccn3)nc3scc(C(=O)NCCc4cnc(O)nc4)c23)CC1 [drawing 2899]", "25 to 50%"),
    ("Oc1nc(-c2ccccn2)nc2c(-c3ccccc3F)csc12 [drawing 2868]", "51 to 75%"),
    ("COc1ccccc1CN(Cc1cccs1)C(=O)c1ccc(Br)o1", "25 to 50%"),
    ("Nc1nc(O)c2scc(Br)c2n1 [drawing 2657]", "1 to 25%"),
    ("N#Cc1ccc(OCCSc2nnc(COc3ccc(F)cc3)o2)cc1", "25 to 50%"),
    ("O=C(c1csc2c(O)nc(-c3ccccn3)nc12)N1CCOC(c2cccc(F)c2)C1 (stereo not shown) [drawing 2732]", "25 to 50%"),
    ("CC(C)N1C(=O)CC(Nc2cc(C(F)(F)F)nc(-c3ccccn3)n2)C1=O (stereo not shown)", "1 to 25%"),
    ("O=C(c1csc2c(O)nc(-c3ccccn3)nc12)N1CCNC(Cc2ccc(F)cc2)C1 (stereo not shown) [drawing 2831]", "51 to 75%"),
    ("Nc1nc(O)c2scc(C(=O)NCCc3cccnc3)c2n1 [drawing 2670]", "1 to 25%"),
    ("Cc1nc(CN(Cc2ccccc2[N+](=O)[O-])C(C)c2ccc(Cl)cc2)oc1C (stereo not shown)", "25 to 50%"),
    ("COc1cccc(CC2CN(C(=O)c3csc4c(O)nc(-c5ccccn5)nc34)CCN2)c1 (stereo not shown) [drawing 2830]", "51 to 75%"),
    ("O=C(c1csc2c(O)nc(-c3ccccn3)nc12)N1CCN(c2ccc(O)c(Cl)c2)CC1 [drawing 2803]", "51 to 75%"),
    ("COc1cc(C(=O)Nc2nnc(-c3ccccn3)[nH]2)ccc1OCC(N)=O", "25 to 50%"),
]
